The measured values listed here are drawn from paper PMC6941823.

The entries below are paired with their reported EC50.
- Test system: Zymoseptoria tritici field and genetically modified strains
- experimental_protocol: Liquid culture assay for fungicide sensitivity determination
- Type: cell-based
- run_parameters: strain IPO94269; liquid culture sensitivity; read-out: EC50 (nM) Mean

{"molecule": "CC(C)C1C2CCC1c1c(NC(=O)c3cn(C)nc3C(F)F)cccc12 (stereo not shown) [Isopyrazam]", "unit": "nM", "EC50": 72.8}
{"molecule": "Cn1cc(C(=O)Nc2ccccc2-c2cc(F)c(F)c(F)c2)c(C(F)F)n1 [Fluxapyroxad]", "unit": "nM", "EC50": 121}
{"molecule": "Cn1cc(C(=O)Nc2ccc(F)cc2-c2ccc(Cl)c(Cl)c2)c(C(F)F)n1 [Bixafen]", "unit": "nM", "EC50": 109}
{"molecule": "Cn1cc(C(=O)Nc2cccc3c2[C@@H]2CC[C@H]3C2=C(Cl)Cl)c(C(F)F)n1 (racemic) [Benzovindiflupyr]", "unit": "nM", "EC50": 108}

---

- System: Zymoseptoria tritici field and genetically modified strains
- experimental_protocol: Liquid culture assay for fungicide sensitivity determination
- Assay type: cell-based
- run_parameters: Zymoseptoria tritici, read-out: EC50 (nM) Mean, strain KO_SDHC3_T13; liquid culture sensitivity
measurement_name: log10(EC50) (log10 of the value in nM)

{"compound": "C[C@@H](Cc1ccc(Cl)cc1Cl)NC(=O)c1cn(C)nc1C(F)F [Compound 2]", "log10(EC50)": 2.49}
{"compound": "O=C(NCCc1ncc(C(F)(F)F)cc1Cl)c1ccccc1C(F)(F)F [Fluopyram]", "log10(EC50)": 2.55}
{"compound": "CC1=C(C(=O)Nc2ccccc2)SCCO1 [Carboxin]", "log10(EC50)": 4.29}
{"compound": "CON(C(=O)c1cn(C)nc1C(F)F)[C@@H](C)Cc1c(Cl)cc(Cl)cc1Cl [Pydiflumetofen]", "log10(EC50)": 0.75}
{"compound": "O=C(Nc1ccccc1-c1ccc(Cl)cc1)c1cccnc1Cl [Boscalid]", "log10(EC50)": 2.83}
{"compound": "Cn1cc(C(=O)NCCc2ccc(Cl)cc2Cl)c(C(F)F)n1 [Compound 1]", "log10(EC50)": 3.86}

---

- experimental_target: SQR (SDHC / altC) of IPO323 pTet::SDHC3 transformant, repressed (Zymoseptoria tritici, UniProt A0A1X7RQW2+F9X9V6+F9XH52+O42772)
- Sequence (F9XH52 44-187): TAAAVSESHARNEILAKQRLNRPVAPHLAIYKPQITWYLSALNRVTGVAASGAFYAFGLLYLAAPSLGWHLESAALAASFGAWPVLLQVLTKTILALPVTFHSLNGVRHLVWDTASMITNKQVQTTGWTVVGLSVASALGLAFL
- Sequence (O42772 20-297): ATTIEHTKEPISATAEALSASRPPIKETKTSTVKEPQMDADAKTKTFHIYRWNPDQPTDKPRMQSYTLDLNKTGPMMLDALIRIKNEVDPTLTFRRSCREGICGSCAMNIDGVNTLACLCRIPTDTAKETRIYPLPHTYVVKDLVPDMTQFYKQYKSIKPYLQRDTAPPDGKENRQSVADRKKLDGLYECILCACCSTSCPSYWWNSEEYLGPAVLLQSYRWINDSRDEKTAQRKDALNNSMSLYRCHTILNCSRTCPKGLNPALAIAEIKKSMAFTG
- Sequence (F9X9V6 1-193): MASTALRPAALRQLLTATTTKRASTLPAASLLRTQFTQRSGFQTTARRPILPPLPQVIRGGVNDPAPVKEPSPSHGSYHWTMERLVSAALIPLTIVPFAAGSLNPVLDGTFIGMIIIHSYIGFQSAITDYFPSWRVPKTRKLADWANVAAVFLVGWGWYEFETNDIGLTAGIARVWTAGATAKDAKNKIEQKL
- Sequence (A0A1X7RQW2 36-181): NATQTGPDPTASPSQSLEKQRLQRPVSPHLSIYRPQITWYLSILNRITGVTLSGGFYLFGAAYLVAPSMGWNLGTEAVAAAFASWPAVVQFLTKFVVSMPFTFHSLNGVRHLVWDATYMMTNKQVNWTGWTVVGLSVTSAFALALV
- Sequence (F9WWR1 41-643 partner): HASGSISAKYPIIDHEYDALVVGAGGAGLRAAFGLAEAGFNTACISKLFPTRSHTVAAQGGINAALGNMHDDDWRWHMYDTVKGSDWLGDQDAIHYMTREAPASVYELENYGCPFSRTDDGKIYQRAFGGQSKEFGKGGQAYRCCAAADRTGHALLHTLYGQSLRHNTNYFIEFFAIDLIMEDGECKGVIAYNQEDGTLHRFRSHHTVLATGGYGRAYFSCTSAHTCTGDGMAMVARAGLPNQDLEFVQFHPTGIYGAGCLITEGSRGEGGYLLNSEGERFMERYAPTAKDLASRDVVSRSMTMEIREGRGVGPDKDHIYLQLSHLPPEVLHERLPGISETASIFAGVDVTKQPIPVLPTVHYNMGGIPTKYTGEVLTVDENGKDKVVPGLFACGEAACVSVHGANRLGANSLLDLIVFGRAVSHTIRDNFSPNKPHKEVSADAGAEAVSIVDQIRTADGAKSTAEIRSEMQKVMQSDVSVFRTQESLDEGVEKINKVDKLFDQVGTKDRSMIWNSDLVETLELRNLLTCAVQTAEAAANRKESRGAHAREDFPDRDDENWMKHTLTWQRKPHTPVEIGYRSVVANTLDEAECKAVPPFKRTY
- experimental_protocol: Succinate-quinone (SQR) SDHI sensitivity assay on purified mitochondria, IPO323 pTet::SDHC3 repressed
- run_parameters: IPO323 pTet::SDHC3 transformant grown in presence of 30 mg.L^-1 doxycycline; mean of three ± SD
measurement_name: IC50 (nM)

{"compound": "CC(C)C1C2CCC1c1c(NC(=O)c3cn(C)nc3C(F)F)cccc12 (centres unmarked) [Isopyrazam]", "unit": "nM", "endpoint_result": 1.2}
{"compound": "Cn1cc(C(=O)NCCc2ccc(Cl)cc2Cl)c(C(F)F)n1 [Compound 1]", "unit": "nM", "endpoint_result": 152}
{"compound": "Cn1cc(C(=O)Nc2ccccc2-c2cc(F)c(F)c(F)c2)c(C(F)F)n1 [Fluxapyroxad]", "unit": "nM", "endpoint_result": 4.5}
{"compound": "C[C@@H](Cc1ccc(Cl)cc1Cl)NC(=O)c1cn(C)nc1C(F)F [Compound 2]", "unit": "nM", "endpoint_result": 15.6}
{"compound": "O=C(Nc1ccccc1-c1ccc(Cl)cc1)c1cccnc1Cl [Boscalid]", "unit": "nM", "endpoint_result": 29.8}
{"compound": "CC(C)CC(C)c1sccc1NC(=O)c1cn(C)nc1C(F)(F)F (centres unmarked) [Penthiopyrad]", "unit": "nM", "endpoint_result": 1.9}
{"compound": "CC1=C(C(=O)Nc2ccccc2)SCCO1 [Carboxin]", "unit": "nM", "endpoint_result": 1200}
{"compound": "Cn1cc(C(=O)Nc2ccc(F)cc2-c2ccc(Cl)c(Cl)c2)c(C(F)F)n1 [Bixafen]", "unit": "nM", "endpoint_result": 1.5}
{"compound": "O=C(NCCc1ncc(C(F)(F)F)cc1Cl)c1ccccc1C(F)(F)F [Fluopyram]", "unit": "nM", "endpoint_result": 21.9}
{"compound": "Cn1cc(C(=O)Nc2cccc3c2[C@@H]2CC[C@H]3C2=C(Cl)Cl)c(C(F)F)n1 (racemic) [Benzovindiflupyr]", "unit": "nM", "endpoint_result": 0.5}
{"compound": "CON(C(=O)c1cn(C)nc1C(F)F)[C@@H](C)Cc1c(Cl)cc(Cl)cc1Cl [Pydiflumetofen]", "unit": "nM", "endpoint_result": 0.5}

---

- experimental_target: C_A84I-SQR (SDHC_A84I), IPO323_Flu21 mitochondria (Zymoseptoria tritici, UniProt F9X9V6+F9XH52+O42772, A84I)
- Sequence (O42772 19-297, stated change not applied, one chain of several): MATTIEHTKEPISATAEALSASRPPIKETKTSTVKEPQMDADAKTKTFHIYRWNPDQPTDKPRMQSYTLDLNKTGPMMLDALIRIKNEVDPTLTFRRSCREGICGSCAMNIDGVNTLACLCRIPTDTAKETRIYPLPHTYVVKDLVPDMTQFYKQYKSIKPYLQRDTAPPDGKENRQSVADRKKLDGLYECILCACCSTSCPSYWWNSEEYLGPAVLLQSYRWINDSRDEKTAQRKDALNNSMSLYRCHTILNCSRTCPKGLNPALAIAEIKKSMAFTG
- Sequence (F9WWR1 29-643 partner, one chain of several): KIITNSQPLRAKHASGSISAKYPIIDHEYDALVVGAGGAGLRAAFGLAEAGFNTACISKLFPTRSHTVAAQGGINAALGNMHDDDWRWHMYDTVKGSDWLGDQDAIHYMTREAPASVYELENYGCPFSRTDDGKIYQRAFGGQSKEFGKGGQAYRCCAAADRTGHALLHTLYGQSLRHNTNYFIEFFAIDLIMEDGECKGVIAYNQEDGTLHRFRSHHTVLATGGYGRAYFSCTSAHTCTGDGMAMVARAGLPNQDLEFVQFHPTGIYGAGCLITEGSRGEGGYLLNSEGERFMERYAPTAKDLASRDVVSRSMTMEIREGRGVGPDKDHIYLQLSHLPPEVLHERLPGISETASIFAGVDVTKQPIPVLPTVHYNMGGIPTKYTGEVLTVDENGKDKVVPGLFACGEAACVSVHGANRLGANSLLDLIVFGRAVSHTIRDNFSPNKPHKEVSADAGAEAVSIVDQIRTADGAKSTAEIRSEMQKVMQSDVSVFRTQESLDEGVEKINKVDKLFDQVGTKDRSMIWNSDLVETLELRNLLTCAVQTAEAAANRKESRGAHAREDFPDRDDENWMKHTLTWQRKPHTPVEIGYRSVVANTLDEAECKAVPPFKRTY
- experimental_protocol: Succinate-quinone (SQR) SDHI sensitivity assay on purified mitochondria, IPO323_Flu21
- Type: biochemical
- run_parameters: IC50 ratio compared to IPO323 values
The entries below are paired with their reported RF (resistance factor), IPO323_Flu21 (SDHC_A84I).
measurement_name: RF (resistance factor), IPO323_Flu21 (SDHC_A84I)

{"compound": "Cn1cc(C(=O)Nc2cccc3c2[C@@H]2CC[C@H]3C2=C(Cl)Cl)c(C(F)F)n1 (racemic)", "endpoint_result": 1.4}
{"compound": "CC(C)C1C2CCC1c1c(NC(=O)c3cn(C)nc3C(F)F)cccc12 (stereo not shown)", "endpoint_result": 6.4}
{"compound": "Cn1cc(C(=O)Nc2ccc(F)cc2-c2ccc(Cl)c(Cl)c2)c(C(F)F)n1", "endpoint_result": 2.3}
{"compound": "Cn1cc(C(=O)Nc2ccccc2-c2cc(F)c(F)c(F)c2)c(C(F)F)n1", "endpoint_result": 1.2}

---

- Tested on: Zymoseptoria tritici field and genetically modified strains
- experimental_protocol: Liquid culture assay for fungicide sensitivity determination
- Format: cell-based
- run_parameters: strain KO_SDHC1_T3; liquid culture sensitivity; read-out: EC50 (nM) Mean
measurement_name: EC50

{"compound": "CC(C)C1C2CCC1c1c(NC(=O)c3cn(C)nc3C(F)F)cccc12 (stereo not shown)", "endpoint_result": "293 nM"}
{"compound": "Cn1cc(C(=O)Nc2ccc(F)cc2-c2ccc(Cl)c(Cl)c2)c(C(F)F)n1", "endpoint_result": "447 nM"}
{"compound": "Cn1cc(C(=O)Nc2cccc3c2[C@@H]2CC[C@H]3C2=C(Cl)Cl)c(C(F)F)n1 (racemic)", "endpoint_result": "40 nM"}
{"compound": "Cn1cc(C(=O)Nc2ccccc2-c2cc(F)c(F)c(F)c2)c(C(F)F)n1", "endpoint_result": "361 nM"}

---

- System: Zymoseptoria tritici field and genetically modified strains
- experimental_protocol: Liquid culture assay for fungicide sensitivity determination
- Type: cell-based
- run_parameters: strain KO_SDHC1_T1; liquid culture sensitivity; read-out: EC50 (nM) Mean
The entries below are paired with their reported EC50.
measurement_name: EC50 (nM)

{"compound": "CC(C)C1C2CCC1c1c(NC(=O)c3cn(C)nc3C(F)F)cccc12 (stereo not shown)", "measurement_name": "EC50", "endpoint_result": 332}
{"compound": "Cn1cc(C(=O)Nc2cccc3c2[C@@H]2CC[C@H]3C2=C(Cl)Cl)c(C(F)F)n1 (racemic)", "measurement_name": "EC50", "endpoint_result": 59}
{"compound": "Cn1cc(C(=O)Nc2ccccc2-c2cc(F)c(F)c(F)c2)c(C(F)F)n1", "measurement_name": "EC50", "endpoint_result": 438}
{"compound": "Cn1cc(C(=O)Nc2ccc(F)cc2-c2ccc(Cl)c(Cl)c2)c(C(F)F)n1", "measurement_name": "EC50", "endpoint_result": 710}

---

- Tested on: Zymoseptoria tritici field and genetically modified strains
- experimental_protocol: Liquid culture assay for fungicide sensitivity determination
- Type: cell-based
- run_parameters: Zymoseptoria tritici, read-out: EC50 (nM) Mean, strain pTet::SDHC3_I78A_T1; liquid culture sensitivity

{"record_smiles": "CC1=C(C(=O)Nc2ccccc2)SCCO1", "EC50, nM": 7520}
{"record_smiles": "O=C(Nc1ccccc1-c1ccc(Cl)cc1)c1cccnc1Cl", "EC50, nM": 776}
{"record_smiles": "Cn1cc(C(=O)NCCc2ccc(Cl)cc2Cl)c(C(F)F)n1", "EC50, nM": 4610}
{"record_smiles": "O=C(NCCc1ncc(C(F)(F)F)cc1Cl)c1ccccc1C(F)(F)F", "EC50, nM": 354}
{"record_smiles": "CON(C(=O)c1cn(C)nc1C(F)F)[C@@H](C)Cc1c(Cl)cc(Cl)cc1Cl", "EC50, nM": 4.8}
{"record_smiles": "C[C@@H](Cc1ccc(Cl)cc1Cl)NC(=O)c1cn(C)nc1C(F)F", "EC50, nM": 168}

---

- experimental_target: SQR (SDHC / altC) of IPO323 pTet::SDHC3 transformant, repressed (Zymoseptoria tritici, UniProt A0A1X7RQW2+F9X9V6+F9XH52+O42772)
- experimental_protocol: Succinate-quinone (SQR) SDHI sensitivity assay on purified mitochondria, IPO323 pTet::SDHC3 repressed
- Format: biochemical
- run_parameters: IC50 ratio compared to IPO323 values
measurement_name: RF (resistance factor), pTet Repressed (SDHC / altC)

{"molecule": "Cn1cc(C(=O)Nc2cccc3c2[C@@H]2CC[C@H]3C2=C(Cl)Cl)c(C(F)F)n1 (racemic) [Benzovindiflupyr]", "endpoint_result": 0.8}
{"molecule": "CC(C)CC(C)c1sccc1NC(=O)c1cn(C)nc1C(F)(F)F (stereo not drawn) [Penthiopyrad]", "endpoint_result": 1.4}
{"molecule": "O=C(Nc1ccccc1-c1ccc(Cl)cc1)c1cccnc1Cl [Boscalid]", "endpoint_result": 1.8}
{"molecule": "CC(C)C1C2CCC1c1c(NC(=O)c3cn(C)nc3C(F)F)cccc12 (stereo not drawn) [Isopyrazam]", "endpoint_result": 1.5}
{"molecule": "CC1=C(C(=O)Nc2ccccc2)SCCO1 [Carboxin]", "endpoint_result": 1.2}
{"molecule": "CON(C(=O)c1cn(C)nc1C(F)F)[C@@H](C)Cc1c(Cl)cc(Cl)cc1Cl [Pydiflumetofen]", "endpoint_result": 1.7}
{"molecule": "Cn1cc(C(=O)Nc2ccccc2-c2cc(F)c(F)c(F)c2)c(C(F)F)n1 [Fluxapyroxad]", "endpoint_result": 1.1}
{"molecule": "Cn1cc(C(=O)Nc2ccc(F)cc2-c2ccc(Cl)c(Cl)c2)c(C(F)F)n1 [Bixafen]", "endpoint_result": 1.1}
{"molecule": "O=C(NCCc1ncc(C(F)(F)F)cc1Cl)c1ccccc1C(F)(F)F [Fluopyram]", "endpoint_result": 1.8}
